Cited source for all entries: ChEMBL document CHEMBL5154765

Attribute: fractional inhibitory concentration index (FICI)
# System: Aspergillus fumigatus
# test.summary: Synergistic antifungal activity against Aspergillus fumigatus GIMCC 3.19 assessed as fractional inhibitory concentration index incubated for 72 hrs in presence of fluconazole by checker board assay
# Assay type: functional
Form rule: numeric answer, no unit written next to it.

Example results:
O=C(/C=C/C(=O)N1CCCC12Cc1ccccc1NC2=O)Nc1ccc(F)cc1 (centres undefined) = 0.75
O=C(/C=C/C(=O)N1CCCC12Cc1ccccc1NC2=O)Nc1ccccc1[N+](=O)[O-] (centres undefined) = 0.75
O=C(/C=C/C(=O)N1CCCC12Cc1ccccc1NC2=O)Nc1ccc(Cl)c(F)c1 (centres undefined) = 0.5

Now for a further compound.
compound O=C(/C=C/C(=O)N1CCCC12Cc1ccccc1NC2=O)Nc1cccc([N+](=O)[O-])c1 (centres undefined) , fractional inhibitory concentration index (FICI) observed: 1.13
